Assay: in vitro
Conditions: rat, hepatocytes
endpoint-name: hepatocyte CLint (µL/min/1e6 cells)

| line-notation | hepatocyte CLint (µL/min/1e6 cells) |
| --- | --- |
| CC(=O)Nc1ccc(F)cc1OC[C@@H](O)CN1CCC2(CC1)Cc1cc(F)ccc1O2 | 12 |

(A) CC(=O)Nc1ccc(O)cc1OC[C@@H](N)CN1CCC2(CC1)Cc1cc(Cl)ccc1O2
(B) CC(=O)Nc1ccc(O)cc1OC[C@@H](O)CN1CCC2(CC1)Cc1cc(Cl)ccc1O2
[ask] API: POST /compare with A and B ; response names the item with higher hepatocyte CLint. Indicate which entry you chose by stating its label.
[reply] B

---

Assay: in vitro
Details: human, liver microsomes
endpoint-name: microsomal CLint (µL/min/mg)

Consider the following illustrative entries.
| line-notation | endpoint-name | value-observed |
| --- | --- | --- |
| COc1ccc(NC(C)=O)c(OC[C@@H](N)CN2CCC3(CC2)Cc2cc(F)ccc2O3)c1 | microsomal CLint | 17.4 |
| COc1ccc(NC(C)=O)c(OC[C@@H](N)CN2CCC3(CC2)Cc2cc(Cl)ccc2O3)c1 | microsomal CLint | 12.6 |
| COc1ccc(NC(C)=O)c(OC[C@@H](O)CN2CCC3(CC2)Cc2cc(Cl)ccc2O3)c1 | microsomal CLint | 55 |
| COc1ccc(NC(C)=O)c(OC[C@@H](N)CN2CCC3(CC2)Cc2ccccc2O3)c1 | microsomal CLint | 18.8 |
| CC(=O)Nc1ccc(F)cc1OC[C@@H](O)CN1CCC2(CC1)Cc1cc(Cl)ccc1O2 | microsomal CLint | 13.5 |

(A) CC(=O)Nc1ccccc1OC[C@@H](O)CN1CCC2(CC1)Cc1cc(F)ccc1O2
(B) CC(=O)Nc1ccc(F)cc1OC[C@@H](O)CN1CCC2(CC1)Cc1cc(F)ccc1O2
[ask] API: POST /compare with A and B ; response names the item with higher microsomal CLint. Indicate which entry you chose by stating its label.
[reply] A
(A: 25.5 µL/min/mg, B: 17.8 µL/min/mg)

---

Test: Clearance in rat liver microsomes
Format: ADME, Microsome
Settings: read-out: CLH
endpoint-name: microsomal CLint (µL/min/mg)

(A) CC(=O)Nc1ccc(O)cc1OC[C@@H](N)CN1CCC2(CC1)Cc1ccccc1O2
(B) CC(=O)Nc1ccc(F)cc1OC[C@@H](O)CN1CCC2(CC1)Cc1cc(F)ccc1O2
[ask] // returns A or B , whichever has the lower microsomal CLint Indicate which entry you chose by stating its label.
[reply] A
(A: 14 µL/min/mg, B: 29 µL/min/mg)

---

Experiment: in vitro
Conditions: human, Caco-2
endpoint-name: Papp (×10⁻⁶ cm/s)

Consider the following illustrative entries.
| line-notation | Papp, ×10⁻⁶ cm/s |
| --- | --- |
| COc1ccc(NC(C)=O)c(OC[C@@H](O)CN2CCC3(CC2)Cc2cc(Cl)ccc2O3)c1 | 24.4 |
| CC(=O)Nc1ccc(O)cc1OC[C@@H](N)CN1CCC2(CC1)Cc1cc(Cl)ccc1O2 | 2.7 |

(I) CC(=O)Nc1ccccc1OC[C@@H](O)CN1CCC2(CC1)Cc1cc(F)ccc1O2
(II) CC(=O)Nc1ccc(O)cc1OC[C@@H](N)CN1CCC2(CC1)Cc1ccccc1O2
(III) CC(=O)Nc1ccc(O)cc1OC[C@@H](O)CN1CCC2(CC1)Cc1cc(F)ccc1O2
(IV) CC(=O)Nc1ccc(O)cc1OC[C@@H](N)CN1CCC2(CC1)Cc1cc(F)ccc1O2
[ask] Sort entries by Papp from minimum to maximum value. Form field (ranking): labels in requested order.
[reply] II, IV, III, I

(1) CC(=O)Nc1ccc(F)cc1OC[C@@H](O)CN1CCC2(CC1)Cc1cc(Cl)ccc1O2
(2) CC(=O)Nc1ccccc1OC[C@@H](O)CN1CCC2(CC1)Cc1cc(Cl)ccc1O2
[ask] // returns 1 or 2 , whichever has the lower Papp Indicate which entry you chose by stating its label.
[reply] 1
(1: 17 ×10⁻⁶ cm/s, 2: 26 ×10⁻⁶ cm/s)
